# target.desc: p110δ/p85α (Homo sapiens, UniProt O00329)
# Sequence (O00329 whole entry): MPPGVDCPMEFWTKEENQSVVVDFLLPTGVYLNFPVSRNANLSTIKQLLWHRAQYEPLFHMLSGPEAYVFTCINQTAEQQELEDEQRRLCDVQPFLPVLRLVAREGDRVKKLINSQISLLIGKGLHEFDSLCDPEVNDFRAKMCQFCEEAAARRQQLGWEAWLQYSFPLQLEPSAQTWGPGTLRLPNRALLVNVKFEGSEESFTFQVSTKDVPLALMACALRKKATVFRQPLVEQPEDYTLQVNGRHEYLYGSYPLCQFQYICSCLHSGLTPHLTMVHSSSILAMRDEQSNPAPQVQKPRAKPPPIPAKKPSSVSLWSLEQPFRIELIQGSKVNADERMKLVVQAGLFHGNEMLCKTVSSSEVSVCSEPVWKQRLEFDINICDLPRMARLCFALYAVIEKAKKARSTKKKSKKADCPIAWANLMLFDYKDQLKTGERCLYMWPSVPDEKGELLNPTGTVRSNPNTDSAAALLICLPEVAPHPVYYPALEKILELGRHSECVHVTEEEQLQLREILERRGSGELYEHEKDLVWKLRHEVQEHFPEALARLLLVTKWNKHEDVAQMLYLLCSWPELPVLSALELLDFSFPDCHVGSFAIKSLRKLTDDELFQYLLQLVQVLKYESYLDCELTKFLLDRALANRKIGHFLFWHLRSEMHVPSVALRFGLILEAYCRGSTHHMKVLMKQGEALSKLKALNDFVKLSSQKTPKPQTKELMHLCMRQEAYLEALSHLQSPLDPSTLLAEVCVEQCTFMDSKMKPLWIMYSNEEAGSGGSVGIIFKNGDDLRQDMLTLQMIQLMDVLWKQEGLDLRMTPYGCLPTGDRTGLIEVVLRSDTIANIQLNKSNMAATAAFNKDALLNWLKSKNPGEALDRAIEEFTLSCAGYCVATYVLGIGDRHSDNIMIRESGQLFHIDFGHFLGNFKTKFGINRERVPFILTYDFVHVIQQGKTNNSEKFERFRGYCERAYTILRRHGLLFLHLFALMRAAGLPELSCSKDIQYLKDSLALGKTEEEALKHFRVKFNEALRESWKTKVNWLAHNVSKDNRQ
# Sequence (P27986 whole entry partner): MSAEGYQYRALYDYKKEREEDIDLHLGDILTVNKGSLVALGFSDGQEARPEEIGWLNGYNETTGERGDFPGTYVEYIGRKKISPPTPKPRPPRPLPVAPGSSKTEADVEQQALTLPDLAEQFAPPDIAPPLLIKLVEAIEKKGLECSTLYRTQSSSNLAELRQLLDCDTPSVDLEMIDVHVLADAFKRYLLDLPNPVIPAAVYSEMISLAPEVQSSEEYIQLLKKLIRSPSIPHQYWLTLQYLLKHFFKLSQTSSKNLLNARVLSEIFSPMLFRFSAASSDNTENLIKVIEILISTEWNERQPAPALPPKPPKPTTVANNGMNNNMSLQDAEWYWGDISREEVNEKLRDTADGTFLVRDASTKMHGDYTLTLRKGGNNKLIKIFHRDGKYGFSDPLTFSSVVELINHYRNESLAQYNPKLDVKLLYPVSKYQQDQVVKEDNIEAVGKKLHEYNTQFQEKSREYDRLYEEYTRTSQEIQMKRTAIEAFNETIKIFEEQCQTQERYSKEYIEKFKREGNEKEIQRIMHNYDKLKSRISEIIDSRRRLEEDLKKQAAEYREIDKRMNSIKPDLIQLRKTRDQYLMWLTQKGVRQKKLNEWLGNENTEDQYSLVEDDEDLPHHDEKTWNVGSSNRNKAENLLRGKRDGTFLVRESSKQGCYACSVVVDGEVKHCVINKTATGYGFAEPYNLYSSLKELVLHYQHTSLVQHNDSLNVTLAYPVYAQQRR
# protocol.description: Transcreener KINASE Assay, kinase inhibition of p110δ/p85α
# run.parameters: read-out: PI3Kδ IC50
endpoint.name: IC50 (nM)
Give bare numbers, in nM.

Required: IC50, one value per compound below.
1. C[S@@+]([O-])c1c[nH]c2ncnc(N3CCC[C@H]3c3nn4ccc(F)c4c(=O)n3-c3ccccc3)c12
2. C[C@H]1CN(c2ncnc3[nH]cc(C#N)c23)[C@@H]1c1nn2ccc(Cl)c2c(=O)n1-c1ccc(F)cc1
3. C#Cc1cnc(N)nc1N1CC[C@H]1c1nn2ccc(Cl)c2c(=O)n1-c1ccccc1
4. CS(=O)(=O)c1cccc(-n2c([C@@H]3CCCN3c3ncnc4[nH]cnc34)nn3ccc(Cl)c3c2=O)c1
5. N#Cc1c[nH]c2ncnc(N3CC(=O)C[C@H]3c3nn4ccc(Cl)c4c(=O)n3-c3ccccc3)c12

1: 11; 2: 20; 3: 60; 4: 23; 5: 1

I have this compound here, C[S+]([O-])c1c[nH]c2ncnc(N3CCC[C@H]3c3nn4ccc(Cl)c4c(=O)n3-c3ccccc3)c12 (stereo partly drawn) [Compound 187] , and I need its recorded IC50.
1

###

# target.desc: p110α/p85α (Homo sapiens, UniProt P42336)
# Sequence (P42336 whole entry, one chain of several): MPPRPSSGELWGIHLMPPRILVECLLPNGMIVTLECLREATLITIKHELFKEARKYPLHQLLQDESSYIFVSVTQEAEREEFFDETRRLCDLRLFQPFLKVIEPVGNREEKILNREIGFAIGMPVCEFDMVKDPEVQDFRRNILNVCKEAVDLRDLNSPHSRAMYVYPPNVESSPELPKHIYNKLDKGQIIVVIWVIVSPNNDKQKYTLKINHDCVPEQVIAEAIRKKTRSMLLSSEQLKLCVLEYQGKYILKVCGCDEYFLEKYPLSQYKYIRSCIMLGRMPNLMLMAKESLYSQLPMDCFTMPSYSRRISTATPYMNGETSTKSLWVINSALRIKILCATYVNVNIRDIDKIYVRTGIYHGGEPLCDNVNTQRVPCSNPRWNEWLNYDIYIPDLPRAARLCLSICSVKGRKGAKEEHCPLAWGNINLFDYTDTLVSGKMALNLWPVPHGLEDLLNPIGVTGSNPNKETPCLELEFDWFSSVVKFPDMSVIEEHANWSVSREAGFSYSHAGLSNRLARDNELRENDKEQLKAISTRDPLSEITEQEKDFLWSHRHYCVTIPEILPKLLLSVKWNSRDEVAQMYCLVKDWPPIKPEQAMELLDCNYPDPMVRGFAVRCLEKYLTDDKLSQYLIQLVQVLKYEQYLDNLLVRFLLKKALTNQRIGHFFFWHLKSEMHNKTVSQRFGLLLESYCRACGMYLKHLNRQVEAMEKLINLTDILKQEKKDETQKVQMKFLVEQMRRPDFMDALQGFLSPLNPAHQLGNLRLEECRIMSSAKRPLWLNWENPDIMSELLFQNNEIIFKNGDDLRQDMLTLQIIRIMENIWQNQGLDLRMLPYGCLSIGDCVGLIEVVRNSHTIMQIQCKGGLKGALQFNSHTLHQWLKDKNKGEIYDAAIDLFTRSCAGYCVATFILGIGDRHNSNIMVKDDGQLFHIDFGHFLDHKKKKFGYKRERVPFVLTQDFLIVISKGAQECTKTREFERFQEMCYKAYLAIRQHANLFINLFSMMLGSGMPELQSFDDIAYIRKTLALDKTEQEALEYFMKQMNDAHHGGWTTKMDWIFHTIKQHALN
# protocol.description: Transcreener KINASE Assay, kinase inhibition of p110α/p85α
# Assay type: biochemical
# run.parameters: 1 uM test compound
Note to self: values exactly at 20% are yes. So PI3Kα IH % @ 1 uM at or above 20% is yes, below is no.

Example entries begin here.
{"compound": "N#Cc1c(N)ncnc1N1CC[C@H]1c1nn2ccc(Cl)c2c(=O)n1-c1ccccc1 [Compound 31]", "classification": "no"}
{"compound": "C[S+]([O-])c1c[nH]c2ncnc(N3CCC[C@H]3c3nn4ccc(Cl)c4c(=O)n3-c3ccccc3)c12 (some centres unmarked) [Compound 187]", "classification": "no"}
{"compound": "CC(Nc1nc(N)ncc1C(F)(F)F)c1cn2ccc(Cl)c2c(=O)n1-c1cccc(F)c1 (centres unmarked) [Compound 84]", "classification": "no"}
{"compound": "Cc1ccn2cc(C(C)Nc3ncnc4[nH]cnc34)n(-c3ccccc3)c(=O)c12 (centres unmarked) [Compound 92]", "classification": "yes"}

Next:
I'd appreciate it if you could say whether C[S+]([O-])c1c[nH]c2ncnc(N3CCC[C@H]3c3nn4ccc(Cl)c4c(=O)n3-c3cccc(F)c3)c12 (some centres unmarked) [Compound 198] has PI3Kα IH % @ 1 uM at least equal to 20%.
no

###

# target.desc: p110δ/p85α (Homo sapiens)
# protocol.description: Transcreener KINASE Assay, kinase inhibition of p110δ/p85α
# Type: biochemical
# run.parameters: 1 uM test compound
I'd be grateful if you could share measured PI3Kδ IH % @ 1 uM for these entries.

{"compound": "C[C@H]1CN(c2nc(N)ncc2Cl)[C@@H]1c1nn2ccc(F)c2c(=O)n1-c1ccccc1", "endpoint.name": "PI3Kδ IH % @ 1 uM", "recorded.measurement": ">100%"}
{"compound": "C[C@H]1CN(c2nc(N)ncc2Cl)[C@@H]1c1nn2ccc(Cl)c2c(=O)n1-c1ccccc1", "endpoint.name": "PI3Kδ IH % @ 1 uM", "recorded.measurement": ">100%"}

Switching to the query record.
I have this compound here, CC(Nc1ncnc2[nH]cc(-c3ccc(N)nc3)c12)c1cc2ncc(Cl)n2c(=O)n1-c1ccccc1 (stereo not drawn) , and I need its recorded PI3Kδ IH % @ 1 uM.
>100%
